Test system: SK-MEL-28 melanoma
experimental_details: NCI tumour cell line growth inhibition, 48 h
property_label: TGI

CCCNC1=C2C[C@@H](C)C[C@@H](OC)[C@@H](OC(=O)CCCN)[C@H](C)/C=C(\C)[C@@H](OC(N)=O)[C@H](OC)/C=C\C=C(/C)C(=O)NC(=CC1=O)C2=O    36.1 µM
CCO/C(O)=C(/C(=N)N1CCOCC1)C(=O)Nc1cccc(C(F)(F)F)c1    > 100 µM
CN(C)c1ccc(/C=C/C(=O)c2cc(C(C)(C)C)c(O)c(C(C)(C)C)c2)cc1    > 100 µM

Lookup result for CCC(=O)OC1CCn2c1nc1c2C(=O)C(C)=C(NC(C)=O)C1=O (stereo unspecified) ; measured TGI: 3.76 µM

Lookup result for "C/C(NNC(=O)c1ccccc1O)=C1\C=Nc2ccccc2S1" ; measured TGI: > 100 µM

Lookup result for OCC1NC(COC2OC(CO)C(O)C(O)C2O)C(O)C(O)C1O (stereo unspecified) ; measured TGI: > 100 µM

Lookup result for C/C=C1/CN2CCC34C(=C(C(=O)OC)C1CC23)Nc1ccc(O)cc14 (stereo unspecified) ; measured TGI: > 100 µM

Lookup result for OC1(c2ccccc2)CC2CCC(C1)N2CCCC(O)(c1ccccc1)c1ccccc1 (stereo unspecified) ; measured TGI: 32.9 µM
